Biological target: SIRT1 (Homo sapiens, UniProt Q96EB6)
Assay: mass spectrometry based assay to identify modulators of SIRT1 activity (deacetylation of p53-based acetylated peptide)
Format: biochemical
Details: 25 min; SIRT1 activation; 10 nM SIRT1, 0.5 μM peptide substrate, 120 μM βNAD+, 25 minutes at 25° C.; read-out: % Fold Act. (percent maximum fold activation)
We begin with a simple list: items and their reported Emax.

Example results:
Requested field: Emax. Item: `O=C(Nc1cccnc1)c1cccc2sc(-c3cccc(C(F)(F)F)c3)nc12`
< 150%

Requested field: Emax. Item: `O=C(Nc1nccs1)c1cccc2nc(-c3ccccc3C(F)(F)F)oc12`
> 150%

Requested field: Emax. Item: `O=C(Nc1ccccn1)c1cccc2sc(-c3cccc(C(F)(F)F)c3)nc12`
< 150%

Requested field: Emax. Item: `O=C(Nc1cccnc1)c1cccc2sc(-c3cccc(OC(F)(F)F)c3)nc12`
< 150%

Requested field: Emax. Item: `O=C(Nc1cccc(CN2CCOCC2)n1)c1cccc2nc(-c3ccccc3OC(F)(F)F)oc12`
> 150%

New cases:
Requested field: Emax. Item: `O=C(Nc1nccs1)c1cccc2nc(-c3ccccc3OC(F)(F)F)oc12`
< 150%

Requested field: Emax. Item: `O=C(Nc1nc(CN2CCOCC2)cs1)c1cccc2nc(-c3ccccc3C(F)(F)F)oc12`
> 150%

Requested field: Emax. Item: `O=C(Nc1ccccn1)c1cccc2nc(-c3ccccc3OC(F)(F)F)oc12`
> 150%

Requested field: Emax. Item: `O=C(Nc1nccs1)c1cccc2sc(-c3cccc(OC(F)(F)F)c3)nc12`
< 150%

====

We begin with a simple list: items and their reported Emax.
Molecular target: SIRT1 (Homo sapiens, UniProt Q96EB6)
Experiment: mass spectrometry based assay to identify modulators of SIRT1 activity (deacetylation of p53-based acetylated peptide)
Type: biochemical
Details: 25 min; SIRT1 activation; 10 nM SIRT1, 0.5 μM peptide substrate, 120 μM βNAD+, 25 minutes at 25° C.; read-out: % Fold Act. (percent maximum fold activation)

Example results:
Requested field: Emax. Item: `O=C(Nc1nccs1)c1cccc2sc(-c3cccc(C(F)(F)F)c3)nc12`
< 150%

Requested field: Emax. Item: `O=C(Nc1cccc2oc(-c3cccc(OC(F)(F)F)c3)nc12)c1cscn1`
< 150%

New cases:
Requested field: Emax. Item: `O=C(Nc1ccccn1)c1cccc2nc(-c3cc(F)ccc3C(F)(F)F)oc12`
< 150%

Requested field: Emax. Item: `O=C(Nc1cccc2oc(-c3ccccc3)nc12)c1cnccn1`
< 150%

====

Molecular target: SIRT1 (Homo sapiens, UniProt Q96EB6)
Experiment: mass spectrometry based assay to identify modulators of SIRT1 activity (deacetylation of p53-based acetylated peptide)
Format: biochemical
Conditions: SIRT1 activation; 10 nM SIRT1, 0.5 μM peptide substrate, 120 μM βNAD+, 25 minutes at 25° C.
TEST READOUT: EC1.5

Requested field: EC1.5. Item: `O=C(Nc1nccs1)c1cccc2nc(-c3cccc(C(F)(F)F)c3)oc12`
C (EC1-5>25 uM)

Requested field: EC1.5. Item: `O=C(Nc1nccs1)c1cccc2oc(-c3cc(F)ccc3C(F)(F)F)nc12`
C (EC1-5>25 uM)

====

Target: SIRT1 (Homo sapiens, UniProt Q96EB6)
Sequence (Q96EB6 1-747): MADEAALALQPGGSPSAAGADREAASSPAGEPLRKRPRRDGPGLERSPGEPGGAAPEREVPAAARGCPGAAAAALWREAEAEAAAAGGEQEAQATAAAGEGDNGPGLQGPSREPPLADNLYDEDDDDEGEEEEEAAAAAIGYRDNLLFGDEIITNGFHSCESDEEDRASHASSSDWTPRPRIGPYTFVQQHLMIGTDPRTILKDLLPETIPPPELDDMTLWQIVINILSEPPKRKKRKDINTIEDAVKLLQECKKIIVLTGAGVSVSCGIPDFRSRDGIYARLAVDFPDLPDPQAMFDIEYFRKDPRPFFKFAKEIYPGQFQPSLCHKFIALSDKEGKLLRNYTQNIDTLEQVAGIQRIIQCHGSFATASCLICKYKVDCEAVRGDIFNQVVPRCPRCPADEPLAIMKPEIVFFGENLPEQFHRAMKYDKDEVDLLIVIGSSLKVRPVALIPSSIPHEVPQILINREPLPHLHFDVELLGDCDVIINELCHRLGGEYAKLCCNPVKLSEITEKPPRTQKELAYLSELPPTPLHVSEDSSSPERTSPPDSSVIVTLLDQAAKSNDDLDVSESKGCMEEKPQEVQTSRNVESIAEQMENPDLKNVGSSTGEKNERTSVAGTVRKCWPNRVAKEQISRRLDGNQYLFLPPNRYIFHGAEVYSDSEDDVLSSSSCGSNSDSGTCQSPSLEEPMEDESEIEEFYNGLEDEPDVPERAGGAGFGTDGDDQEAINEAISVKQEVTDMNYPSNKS
Assay: mass spectrometry based assay to identify modulators of SIRT1 activity (deacetylation of p53-based acetylated peptide)
Assay type: biochemical
Settings: 25 min; SIRT1 activation; 10 nM SIRT1, 0.5 μM peptide substrate, 120 μM βNAD+, 25 minutes at 25° C.; read-out: % Fold Act. (percent maximum fold activation)
We begin with a simple list: items and their reported Emax.

Requested field: Emax. Item: `O=C(Nc1nccs1)c1cccc2sc(-c3cccc(N4CCOCC4)c3)nc12`
< 150%

Requested field: Emax. Item: `O=C(Nc1cccc2oc(-c3cccc(C(F)(F)F)c3)nc12)c1cscn1`
< 150%

Requested field: Emax. Item: `O=C(Nc1nccs1)c1cccc2oc(-c3ccccc3C(F)(F)F)nc12`
> 150%

New cases:
Requested field: Emax. Item: `O=C(Nc1cccc(CN2CCOCC2)n1)c1cccc2oc(-c3ccc(F)cc3C(F)(F)F)nc12`
> 150%

Requested field: Emax. Item: `O=C(Nc1nccs1)c1ccnc2sc(-c3cccc(C(F)(F)F)c3)nc12`
< 150%

Requested field: Emax. Item: `O=C(Nc1ccccn1)c1cccc2oc(-c3ccccc3C(F)(F)F)nc12`
> 150%

Requested field: Emax. Item: `O=C(Nc1cccc(N2CCCC2)n1)c1cccc2sc(-c3cccc(C(F)(F)F)c3)nc12`
> 150%

Requested field: Emax. Item: `O=C(Nc1nc(CN2CCOCC2)cs1)c1cccc2oc(-c3ccc(F)cc3C(F)(F)F)nc12`
> 150%
